Value source: patent US20250263470A1

- target.entity: recombinant HA derived from Yamagata lineage strain B/FLA/06 (B/Florida/4/2006) (influenza B virus B/Florida/4/2006)
- assay.comment: ELISA on coated recombinant HA, unpurified IgG
measurement.label: EC50 (µg/mL)
Respond with the bare value in µg/mL.

Data point: FBC-39 FSS (antibody, V domains shown) VH: EVQLVESGGGLVKPGGSLRLSCAASGFSFSNAWMSWVRQAPGKGLEWVGRIKSNTDGGTTDYAAPVKGRFTISRDDSKNTLYLQMSSLKTEDTAVYYCTTDGPYSDDFRSGYAARYRYFGMDVWGQGTTVTVSS VL: DIQMTQSPSSVSASVGDRVTITCRASQDISTWLAWYQQKPGKAPKLLIYAASSLQSGVPSRFSGSGSGTDFTLTISSLQPEDFATYYCQQANSFPPTFGQGTKLEIK ; EC50 = 0.019
